Below is a list of entries, each paired with its recorded IC50 value.
System: NCI-H2122 cells
Assay: NCI-H2122 CTG proliferation assay (120 h) (NSCLC, G12C)
Format: cell-based
Conditions: Homo sapiens
Experimental: NCI-H2122 CTG Proliferation Assay (120 h) (NSCLC, G12C) The CTG assay is designed to measure quantitatively the proliferation of NCI-H2122 cells (ATCC CRL-5985), using the CellTiter Glow Assay Kit (Promega G7571). […] Plates are incubated for 120 h, and cell viability is measured using CellTiter-Glo luminescent cell viability reagent (Promega product code G7570). […] IC50 values are determined from viability measurements by non-linear regression using a four parameter model.
Report the figure in nM without appending any unit label.

Take a look at these entries with their results.
C[C@H](Oc1cc(N2CCNC3(CC3)C2)nc(-c2noc3c2CCC[C@@]32CCCc3sc(N)c(C#N)c32)n1)[C@@H]1CCCN1C [II-54]; 1770
C[C@H](Oc1cc(-n2cnc3cccnc32)nc(-c2noc3c2CCC[C@@]32CCCc3sc(N)c(C#N)c32)n1)[C@@H]1CCCN1C [II-65]; 2550
C[C@H](Oc1cc(N2CCNC3(COC3)C2)nc(-c2onc3c2CCC[C@@]32CCCc3sc(N)c(C#N)c32)n1)[C@@H]1CCCN1C [I-4]; 3750
C[C@H](Oc1cc(N2CCN(C)C3(CC3)C2)nc(-c2onc3c2CCC[C@@]32CCCc3sc(N)c(C#N)c32)n1)[C@@H]1CCCN1C [I-41]; 3560

In: Any idea what its IC50 is? The compound is C[C@H](Oc1cc(-n2cc(Cn3cncn3)nn2)nc(-c2noc3c2CCC[C@@]32CCCc3sc(N)c(C#N)c32)n1)[C@@H]1CCCN1C [II-124]
Out: 901

In: Can you share its IC50? I mean this compound: C[C@H](Oc1cc(-c2ccn([C@H]3CCOC3)n2)nc(-c2noc3c2CCC[C@@]32CCCc3sc(N)c(C#N)c32)n1)[C@@H]1CCCN1C [II-127]
Out: 189

In: Reported IC50 for C[C@H](Oc1cc(N2CCNC2=O)nc(-c2noc3c2CCC[C@@]32CCCc3sc(N)c(C#N)c32)n1)[C@@H]1CCCN1C [II-64] : what is it?
Out: 6360

In: Given C[C@H](Oc1cc(-n2cncn2)nc(-c2onc3c2CCC[C@@]32CCCc3sc(N)c(C#N)c32)n1)[C@@H]1CCCN1C [I-18] , state its recorded IC50.
Out: 1760

###

experiment: Plasma protein binding assay (PPB), equilibrium dialysis, 10% FCS in PBS; assay type: in vitro ADME; details: bovine, read-out: PPB 10% FCS (% fu)
PROPERTY: fraction unbound
Enter the number alone.

CO[C@H]1CCN(C)[C@@H]1[C@H](C)Oc1cc(N2CCNC3(CC3)C2)nc(-c2noc3c2CCC[C@@]32CCCc3sc(N)c(C#N)c32)n1 [II-184]; 0.1
C[C@H](Oc1cc(N2CCNC[C@]23CCOC3)nc(-c2onc3c2CCC[C@@]32CCCc3sc(N)c(C#N)c32)n1)[C@@H]1CCCN1C [I-12]; 0.46
C[C@H](Oc1cc(-n2ccnn2)nc(-c2noc3c2CCC[C@@]32CCCc3sc(N)c(C#N)c32)n1)[C@@H]1CCCN1C [II-108]; 0.42
C[C@H](Oc1cc(-n2cncn2)nc(-c2onc3c2CCC[C@@]32CCCc3sc(N)c(C#N)c32)n1)[C@@H]1CCCN1C [I-18]; 0.61
CC(C)NC(=O)Cc1ccn(-c2cc(O[C@@H](C)[C@@H]3CCCN3C)nc(-c3noc4c3CCC[C@@]43CCCc4sc(N)c(C#N)c43)n2)n1 [II-182]; 0.13

In: Need fraction unbound of C[C@H](Oc1cc(N2CCNC2=O)nc(-c2noc3c2CCC[C@@]32CCCc3sc(N)c(C#N)c32)n1)[C@@H]1CCCN1C [II-64] , thanks.
Out: 0.23
